Target: T1, nSR100 (Mus musculus, UniProt Q8BKA3)
T1 construct: host or cells: mouse N2A cells
T1 sequence (Q8BKA3 1-608): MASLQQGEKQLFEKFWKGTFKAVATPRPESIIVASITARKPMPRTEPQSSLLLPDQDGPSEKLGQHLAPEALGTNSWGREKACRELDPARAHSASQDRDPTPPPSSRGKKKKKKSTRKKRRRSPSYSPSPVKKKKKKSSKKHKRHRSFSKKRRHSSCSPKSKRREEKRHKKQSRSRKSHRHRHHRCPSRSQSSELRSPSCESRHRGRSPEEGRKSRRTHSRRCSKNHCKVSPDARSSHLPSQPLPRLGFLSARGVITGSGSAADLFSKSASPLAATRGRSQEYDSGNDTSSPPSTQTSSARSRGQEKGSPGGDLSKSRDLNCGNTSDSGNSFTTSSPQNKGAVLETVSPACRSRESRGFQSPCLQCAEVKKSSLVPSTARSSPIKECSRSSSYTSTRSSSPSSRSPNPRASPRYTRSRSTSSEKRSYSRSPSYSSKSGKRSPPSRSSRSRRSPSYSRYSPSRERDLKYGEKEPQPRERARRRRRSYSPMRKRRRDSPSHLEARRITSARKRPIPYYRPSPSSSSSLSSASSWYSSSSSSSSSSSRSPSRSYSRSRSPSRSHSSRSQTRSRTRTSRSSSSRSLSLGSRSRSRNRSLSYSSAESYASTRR
Experiment: AP-MS nSR100 interaction partners from mouse N2A cells (Table 5)
Type: binding
Details: bait Srrm4, 2 replicates
What AvgSpec (average number of spectra per replicate) was measured for each of the following?
Give bare numbers.

// batch mode: one AvgSpec (average number of spectra per replicate) value per listed entry
1. Cdc37 (protein, UniProt Q61081 1-379, looked up) Hsp90 co-chaperone Cdc37: MVDYSVWDHIEVSDDEDETHPNIDTASLFRWRHQARVERMEQFQKEKEELDRGCRECKRKVAECQRKLKELEVAESDGQVELERLRAEAQQLRKEERSWEQKLEDMRKKEKNMPWNVDTLSKDGFSKSMVNTKPEKAEEDSEEAREQKHKTFVEKYEKQIKHFGMLHRWDDSQKYLSDNVHLVCEETANYLVIWCIDLEVEEKCALMEQVAHQTMVMQFILELAKSLKVDPRACFRQFFTKIKTADHQYMEGFKYELEAFKERVRGRAKLRIEKAMKEYEEEERKKRLGPGGLDPVEVYESLPEELQKCFDVKDVQMLQDAISKMDPTDAKYHMQRCIDSGLWVPNSKSGEAKEGEEAGPGDPLLEAVPKAGNEKDVSA
2. Pgam5 (protein, UniProt Q8BX10 1-288, looked up) Serine/threonine-protein …: MAFRQALQLAACGLAGGSAAVLFSAVAVGKPRGGGDADTRATEPPAWTGARAGRGVWDTNWDRREPLSLINLKKRNVESGEDELTSRLDHYKAKATRHIFLIRHSQYHVDGSLEKDRTLTPLGREQAELTGLRLASLGLKFNKIVHSSMTRAVETTDIISKHLPGVSRVSTDLLREGAPIEPDPPVSHWKPEAVQYYEDGARIEAAFRNYIHRADARQEEDSYEIFICHANVIRYIVCRALQFPPEGWLRLSLNNGSITHLVIRPNGRVALRTLGDTGFMPPDKITRS
3. Fam76b (protein, UniProt Q80XP8 2-339, looked up) Protein FAM76B: AASALYACTKCTQRYPFEELSQGQQLCKECRIAHPIVKCTYCRSEFQQESKTNTICKKCAQNVKQFGTPKPCQYCNIIAAFIGTKCQRCTNSEKKYGAPQTCEQCKQQCAFDRKEEGRRKVDGKLLCWLCTLSYKRVLQKTKEQRKSLGSSHSNSSSSSLTEKDQHHSKHHHHHHHHHHRHSSGHHKVSSLSPEQEQGLWKQSHKSSAAIQNETPKKKPKLESKPSNGDSSSINQSADSGGTDNFVLISQLKEEVMSLKRLLQQRDQTILEKDKKLTELKADFQYQESNLRTKMNSMEKAHKETVEQLQAKNRELLKQVAALSKGKKFDKSGSVLTSP
4. P00761 (protein, UniProt P00761 1-231, looked up, full-length) FPTDDDDKIVGGYTCAANSIPYQVSLNSGSHFCGGSLINSQWVVSAAHCYKSRIQVRLGEHNIDVLEGNEQFINAAKIITHPNFNGNTLDNDIMLIKLSSPATLNSRVATVSLPRSCAAAGTECLISGWGNTKSSGSSYPSLLQCLKAPVLSDSSCKSSYPGQITGNMICVGFLEGGKDSCQGDSGGPVVCNGQLQGIVSWGYGCAQKNKPGVYTKVCNYVNWIQQTIAAN

### Response
53
16
3.5
15

### Prompt Consider the molecule Tpi1 (protein, UniProt P17751 2-249, looked up) Triosephosphate isomerase: APTRKFFVGGNWKMNGRKKCLGELICTLNAANVPAGTEVVCAPPTAYIDFARQKLDPKIAVAAQNCYKVTNGAFTGEISPGMIKDLGATWVVLGHSERRHVFGESDELIGQKVSHALAEGLGVIACIGEKLDEREAGITEKVVFEQTKVIADNVKDWSKVVLAYEPVWAIGTGKTATPQQAQEVHEKLRGWLKSNVNDGVAQSTRIIYGGSVTGATCKELASQPDVDGFLVGGASLKPEFVDIINAKQ and give its measured AvgSpec (average number of spectra per replicate).
### Response 10

Sourced from patent US10772928B2
